FYI, the data here is from ChEMBL document CHEMBL2424520.

assay: Inhibition of DNAK/CLPB (unknown origin) assessed as reactivation of malate dehydrogenase aggregates after 2 hrs
experimental_readout: IC50 (µM)

substance_smiles	IC50 (µM)
O=C1Nc2ccc([N+](=O)[O-])cc2/C1=C1\SC(=O)N(c2ccc(Cl)cc2)C1=O	10
O=C1Nc2ccc(Br)cc2/C1=C1/SC(=O)N(c2ccccc2)C1=O	30
O=C(Nc1cccc([N+](=O)[O-])c1)c1sc2cccc(Cl)c2c1Cl	90
O=C(Nc1ccccc1)OCCSC(=O)Nc1ccc(Cl)c(Cl)c1	20

[a] O=Cc1cc(Cc2ccccc2Cl)cc([N+](=O)[O-])c1O
[b] CCn1c(=O)c(C(=O)Nc2cccc(O)c2)c(O)c2ccccc21
input: Hello, I am sorting some records. Could you say if a or b has the smaller IC50 value? Refer to your chosen entry by its label in the reply.
output: a
(a: 7 µM, b: 65 µM)
